So I've got a bunch of binders here, and I need their koff values.
Target: T1, human B7-H4 extracellular domain (human, UniProt Q7Z7D3 29-258)
T1 construct: Soluble ECD used as SPR analyte; also called huB7-H4 ECD; huB7-H4
T1 sequence: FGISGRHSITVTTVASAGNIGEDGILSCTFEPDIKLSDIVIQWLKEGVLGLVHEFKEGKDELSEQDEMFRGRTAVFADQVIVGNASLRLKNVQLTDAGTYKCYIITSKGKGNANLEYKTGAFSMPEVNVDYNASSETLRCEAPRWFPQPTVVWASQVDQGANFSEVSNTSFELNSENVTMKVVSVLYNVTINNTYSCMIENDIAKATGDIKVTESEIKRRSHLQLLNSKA
Assay: SPR 37 C; IgG1 on anti-hFc chip, ECD analyte;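 further: antibodies captured, then B7-H4 ECD injected at five 3-fold dilutions from 300 nM, 65 s association and 600 s dissociation, fitted to a 1:1 Langmuir model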
Give bare numbers, in s⁻¹.

Completed entries (count: 3):
Req: Suppose we examine the binder B7-H4 antibody 0052 (antibody, human IgG1, kappa, V domains shown, IgG1 mAb format; parental; also called 28D10) VH: QVQLQQWGAGLLKPSETLSLTCAVYGGSFSGYYWNWIRQPPGKGLEWIGEINHSGSTKYNPSLKSRVTISGDTSKNQFSLKLNSVTAADTAVYYCVRGLYNWNVDSWGQGTLVTVSS VL: DIQMTQSPSSLSASVGDRVTITCRASQGIRNDLGWYQQKPGKAPKRLIYVASSLQSGVPSRFSGSGSGTEFTLTISSLQPEDFATYYCLQHNSYPYTFGQGTKLEIKR ; what koff value has been reported?
Resp: 0.00565

Req: Suppose we examine the binder B7-H4 antibody 1081 (antibody, human IgG1, kappa, V domains shown, IgG1 mAb format) VH: EVQLVESGGGLVQPGGSLRLSCAVSGGSFSGYYWNWIRQPPGKGLEWIGEIDHQGSTKYNPSLKSRVTISVDTAKNSFYLQMNSLRAEDTAVYYCARGLYNWNVDHWGQGTLVTVSS VL: DIQMTQSPSSLSASVGDRVTITCRASQGIRNDLGWYQQKPGKAPKRLIYAASSLQSGVPSRFSGSGSGTDFTLTISSLQPEDFATYYCLQHNAYPRTFGGGTKVEIKR ; what koff value has been reported?
Resp: 0.00962

Req: Suppose we examine the binder B7-H4 antibody 0934 (antibody, human IgG1, kappa, V domains shown, IgG1 mAb format) VH: EVQLVESGGGLVQPGGSLRLSCAVSGGSFSGYYWNWVRQAPGKGLEWIGEINHSGSATYNPSLKSRVTISVDTAKNSLYLQMNSLRAEDTAVYYCARGLYNWNVDHWGQGTLVTVSS VL: DIQMTQSPSSLSASVGDRVTITCRASQGIRNDLGWYQQKPGKAPKRLIYAASSLQSGVPSRFSGSGSGTDFTLTISSLQPEDFATYYCLQHSSYPRTFGGGTKVEIKR ; what koff value has been reported?
Resp: 0.00539

// moving on: another record for koff
Req: Suppose we examine the binder B7-H4 antibody 1113 (antibody, human IgG1, kappa, V domains shown, IgG1 mAb format) VH: EVQLLESGGGLVQPGGSLRLSCAASGFTFSSYAMSWVRQAPGKGLEWVSAISGGGGSTYYADSVKGRFTISRDNSKNTLYLQMNSLRAEDTAVYYCARDIQWYGESTLFDYWGQGTLVTVSS VL: DIQMTQSPSSLSASVGDRVTITCRASQSTRSWLAWYQQKPGKAPKLLIYKASSLEGGVPSRFSGSGSGTDFTLTISSLQPEDFATYYCQQYGSYSRTFGQGTKVEIKR ; what koff value has been reported?
Resp: 0.00108
